FYI, the data here is from patent US20250034275A1.

The binders listed here are annotated with their EC50.
Biological target: T1, human Trop-2 (on the surface of human cell lines) (human, UniProt P09758 27-323)
T1 construct: Endogenous Trop-2 on NCI-H322, Capan-1, PC-3, HUVEC, OVCAR-3, HCC38 and HCC1806 cells; also called TACSTD2
T1 sequence: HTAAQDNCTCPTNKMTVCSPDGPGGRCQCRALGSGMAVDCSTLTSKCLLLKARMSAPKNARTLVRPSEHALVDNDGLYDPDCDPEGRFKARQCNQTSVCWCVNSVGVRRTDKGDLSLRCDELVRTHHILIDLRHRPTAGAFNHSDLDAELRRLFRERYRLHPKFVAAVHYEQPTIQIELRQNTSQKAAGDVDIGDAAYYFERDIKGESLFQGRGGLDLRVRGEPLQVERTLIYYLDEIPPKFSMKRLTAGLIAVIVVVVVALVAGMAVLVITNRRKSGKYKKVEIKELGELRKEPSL
Assay: flow cytometry, HCC1806 cells
Record the value in pM, omitting the unit from your answer.

These solved cases illustrate the format of a correct answer.
{"binder": "hz-Ab35-2.3 (antibody, human IgG1, kappa, V domains shown, Humanized antibody) VH: QVQLVQSGAEVKKPGASVKVSCKASGYTFTSSDINWVRQRPGQGLEWMGWIYPRDGSKKYNEKFKGRVTMTVDTSTSTVYMELSSLRSEDTAVYYCATRFATVVSNYGLDPWGQGTLVTVSS VL: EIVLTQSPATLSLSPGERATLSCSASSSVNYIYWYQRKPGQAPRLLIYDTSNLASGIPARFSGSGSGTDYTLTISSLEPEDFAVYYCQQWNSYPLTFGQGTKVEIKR", "units.symbol": "pM", "test.value": 610}
{"binder": "hz-Ab35-2.1 (antibody, human IgG1, kappa, V domains shown, Humanized antibody) VH: QVQLVQSGAEVKKPGASVKVSCKASGYTFTSSDINWVRQRPGQGLEWMGWIYPRDGSKKYAQKFQGRVTMTVDTSTSTVYMELSSLRSEDTAVYYCATRFATVVSNYGLDPWGQGTLVTVSS VL: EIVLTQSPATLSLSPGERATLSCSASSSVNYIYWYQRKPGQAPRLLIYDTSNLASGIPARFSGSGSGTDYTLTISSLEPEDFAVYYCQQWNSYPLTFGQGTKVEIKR", "units.symbol": "pM", "test.value": 760}
{"binder": "ch-Ab2 (antibody, human IgG1, kappa, V domains shown, also called chimeric antibody of Ab2) VH: EVQLVESGPGLVAPSQSLSITCTVSGFSLTYYGIDWVRQPPGKGLEWLGVIWGSGNTKYNSALMSRLSISKDNSKSQVFLRMNSLQSDDTAIYYCARFYEGFAYWGQGTLVTVSA VL: AIVLTQSPSSMYASLGERVTITCKASQDINSYLSWFQQKPGKSPKTLIYRANRLVDGVPSRFSGSGSGQDYSLTISSLEYEDMGIYYCLQYDEFPLTFGVGTKLELKR", "units.symbol": "pM", "test.value": 780}
{"binder": "hz-Ab21-2.2 (antibody, human IgG1, kappa, V domains shown, Humanized antibody) VH: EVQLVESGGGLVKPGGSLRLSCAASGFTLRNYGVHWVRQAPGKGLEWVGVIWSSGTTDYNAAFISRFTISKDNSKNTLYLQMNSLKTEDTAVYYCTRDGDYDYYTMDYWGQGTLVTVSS VL: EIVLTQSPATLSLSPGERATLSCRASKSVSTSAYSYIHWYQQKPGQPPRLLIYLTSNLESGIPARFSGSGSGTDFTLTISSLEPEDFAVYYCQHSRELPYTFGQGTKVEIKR", "units.symbol": "pM", "test.value": 1180}

Now look at this entry.
Task: Request the reported EC50 associated with hz-Ab21-1.1 (antibody, human IgG1, kappa, V domains shown, Humanized antibody) VH: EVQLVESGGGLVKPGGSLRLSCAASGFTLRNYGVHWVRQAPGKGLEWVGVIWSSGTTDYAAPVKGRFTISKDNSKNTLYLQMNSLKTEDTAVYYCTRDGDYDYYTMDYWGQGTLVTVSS VL: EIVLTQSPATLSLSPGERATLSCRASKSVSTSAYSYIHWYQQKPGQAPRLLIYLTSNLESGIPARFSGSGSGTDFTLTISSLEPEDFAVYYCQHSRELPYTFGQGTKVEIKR
Output: 640
